molecular target: T1, His-tagged human CD38 (ACRO Biosystems CD8-H5224) (human, UniProt P28907 43-300); assay: SPR, IgG
T1 construct: bought protein; used for ELISA coating and as SPR analyte; not shown: His tag
Documented Kd across a set of binders
Answer format: numeric, nM implied, no suffix.

1) 40769p2.1.H12 IgG (antibody, V domains shown, IgG) VH: EVQLLESGGGLIQPGGSLRLSCTASGFDFSSYGMHWVRQAPGKGLEWVGIISDSGGTTYYADSVKGRFTISRDNSKNTLYLQMNSLRAEDTALYYCASYIMDVWGQGITVTVSS VL: QSVLTQPPSASGTPGQRVTISCSGSNSNVGVNSVYWYQQLPGTAPKLLIYGSGRRPSGVPDRFSVSKSGTSASLAISGLQSEDEADYYCAAWDDGLNAWVFGGGTKLTVL = 160

// next item, Kd requested
Prompt line: Item under review: 40596p2.1.A2 IgG (antibody, V domains shown, IgG) VH: EVQLLESGGGLVQPGGSLTLSCTASGLTFSSYAMNWVRQAPGKGLEWVATISSNSGSFRSYADSVKGRFTISRDNSKSTLYLQTNSLRAEDTALYYCTKDRSITANDFTMDVWGQGTTVTVSS VL: EIVLTQSPGTLSVSPGERATLNCRASQTVGSRLAWYQQKPGQAPRLLIYGASSRATGIPARFSGSGSGTEFTLTISSLQSEDFAVYYCQQYYDWPPLTFGGGTKVEIK . Reported Kd?
Response line: 10.9

Numbers sourced from patent US20220306762A1.
